Answer each item with its documented kon.
target: T1, Tilelizumab; experiment: SPR, Biacore T200; PD1-RFc mobile phase, antibody stationary phase
T1 construct: Biotin-labelled in flow cytometry; also called Tevimbra; Tislelizumab
# include the unit after the value

Completed entries (count: 5):
Binder	kon
Seq No.2-RFc (PD-1 variant SEQ ID NO: 2 fused to rabbit IgG Fc) (Fc fusion, signal peptide 1-20 left out; also called variant 1; not shown: rabbit IgG Fc (RFc) of vector pcDNA3.4-RFc) PGWFLDSPDRPWNPPTFSPALLVVTEGDNATFTCSFSNTSESFVLNWYRMSPSNQTDKLAAFPEDRSQPGQDCRFRVTQLPNGRDFHMSVVRARRNDSGTYLCGAISLSTPVWIKESLRAELRVTERRAEVPTAH	2.05e+06 M⁻¹ s⁻¹
Seq No.7-RFc (PD-1 variant SEQ ID NO: 7 fused to rabbit IgG Fc) (Fc fusion, Signal peptide 1-20 left out; also called variant 6; not shown: rabbit IgG Fc (RFc) of vector pcDNA3.4-RFc) PGWFLDSPDRPWNPPTFSPALLVVTEGDNATFTCSFSNTSESFVLNWYRMSPSNQTDKLAAFPEDRINRSQDCRFRVTQLPNGRDFHMSVVRARRNDSGTYLCGAISLSTPVWIKESLRAELRVTERRAEVPTAH	2.21e+06 M⁻¹ s⁻¹
Seq No.6-RFc (PD-1 variant SEQ ID NO: 6 fused to rabbit IgG Fc) (Fc fusion, Signal peptide 1-20 left out; also called variant 5; 56#-16; not shown: rabbit IgG Fc (RFc) of vector pcDNA3.4-RFc) PGWFLDSPDRPWNPPTFSPALLVVTEGDNATFTCSFSNTSESFVLNWYRMSPSNQTDKLAAFPEDFFTVSQDCRFRVTQLPNGRDFHMSVVRARRNDSGTYLCGAISLSTPVWIKESLRAELRVTERRAEVPTAH	2.66e+06 M⁻¹ s⁻¹
Seq No.3-RFc (PD-1 variant SEQ ID NO: 3 fused to rabbit IgG Fc) (Fc fusion, Signal peptide 1-20 left out; also called variant 2; not shown: rabbit IgG Fc (RFc) of vector pcDNA3.4-RFc) PGWFLDSPDRPWNPPTFSPALLVVTEGDNATFTCSFSNTSESFVLNWYRMSPSNQTDKLAAFPFLFNLPGQDCRFRVTQLPNGRDFHMSVVRARRNDSGTYLCGAISLSTPVWIKESLRAELRVTERRAEVPTAH	588000 M⁻¹ s⁻¹
Seq No.5-RFc (PD-1 variant SEQ ID NO: 5 fused to rabbit IgG Fc) (Fc fusion, Signal peptide 1-20 left out; also called variant 4; not shown: rabbit IgG Fc (RFc) of vector pcDNA3.4-RFc) PGWFLDSPDRPWNPPTFSPALLVVTEGDNATFTCSFSNTSESFVLNWYRMSPSNQTDKLAAFPEDFRNCTQDCRFRVTQLPNGRDFHMSVVRARRNDSGTYLCGAISLSTPVWIKESLRAELRVTERRAEVPTAH	530000 M⁻¹ s⁻¹

We now examine a further binder.
So, Seq No.4-RFc (PD-1 variant SEQ ID NO: 4 fused to rabbit IgG Fc) (Fc fusion, Signal peptide 1-20 left out; also called variant 3; not shown: rabbit IgG Fc (RFc) of vector pcDNA3.4-RFc) PGWFLDSPDRPWNPPTFSPALLVVTEGDNATFTCSFSNTSESFVLNWYRMSPSNQTDKLAAFPWMFCFPGQDCRFRVTQLPNGRDFHMSVVRARRNDSGTYLCGAISLSTPVWIKESLRAELRVTERRAEVPTAH ? Its kon was 691000 M⁻¹ s⁻¹
